Test: Rat CSF distribution after oral administration of APRE (UPLC-MS/MS)
Details: rat, CSF, po, 4 g/kg
Criterion: AUC(0-t) strictly less than 30 ng·h/mL. Met: YES. Not met: NO.

I'd appreciate it if you could check whether "O=c1ccc2cc3ccoc3cc2o1" has AUC(0-t) smaller than 30 ng·h/mL.
YES

I'd appreciate it if you could check whether CC=C(C)C(=O)OC(C(O)c1cc2ccc(=O)oc2cc1OC)C(C)(C)O (centres unmarked) has AUC(0-t) smaller than 30 ng·h/mL.
YES

I'd appreciate it if you could check whether COc1ccc2ccc(=O)oc2c1CC(O)C(C)(C)O (centres unmarked) [Compound 11, Meranzin hydrate] has AUC(0-t) smaller than 30 ng·h/mL.
NO

I'd appreciate it if you could check whether CC(C)(O)[C@H](O)COc1c2ccoc2cc2oc(=O)ccc12 [Compound 8, oxypeucedanin hydrate] has AUC(0-t) smaller than 30 ng·h/mL.
NO

I'd appreciate it if you could check whether "CC(C)(O)[C@H]1Cc2cc3ccc(=O)oc3cc2O1" has AUC(0-t) smaller than 30 ng·h/mL.
NO

I'd appreciate it if you could check whether "COc1c2ccoc2cc2oc(=O)ccc12" has AUC(0-t) smaller than 30 ng·h/mL.
YES

I'd appreciate it if you could check whether "COc1ccc2ccc(=O)oc2c1CC=C(C)C" has AUC(0-t) smaller than 30 ng·h/mL.
YES

I'd appreciate it if you could check whether "CC(C)(O)[C@@H]1Cc2c(ccc3ccc(=O)oc23)O1" has AUC(0-t) smaller than 30 ng·h/mL.
NO

---

Assay: Rat CSF distribution after oral administration of APRE (UPLC-MS/MS)
Conditions: rat, CSF, po, 4 g/kg
Hi there, I'd appreciate the recorded half-life for every entry that follows.
Numeric answer only, unit h assumed.

Which measured half-life value corresponds to "COc1ccc2ccc(=O)oc2c1CC=C(C)C" ?
3.19

Which measured half-life value corresponds to "O=c1ccc2cc3ccoc3cc2o1" ?
3.52

Which measured half-life value corresponds to "CC(C)(O)[C@H]1Cc2cc3ccc(=O)oc3cc2O1" ?
6.69

Which measured half-life value corresponds to CC=C(C)C(=O)OC(C(O)c1cc2ccc(=O)oc2cc1OC)C(C)(C)O (centres unmarked) ?
7.02

Which measured half-life value corresponds to "COc1c2ccoc2cc2oc(=O)ccc12" ?
6.72

Which measured half-life value corresponds to COc1ccc2ccc(=O)oc2c1CC(O)C(C)(C)O (centres unmarked) [Compound 11, Meranzin hydrate] ?
3.37

Which measured half-life value corresponds to CC(C)(O)[C@H](O)COc1c2ccoc2cc2oc(=O)ccc12 [Compound 8, oxypeucedanin hydrate] ?
6.32

Which measured half-life value corresponds to "CC(C)(O)[C@@H]1Cc2c(ccc3ccc(=O)oc23)O1" ?
4.06

---

Assay: Stability of QC samples in aCSF (freeze-thaw, room temperature)
Type: physicochemical
Conditions: aCSF QC 5 ng/mL, three freeze-thaw cycles, percentage remaining, n = 5
endpoint.name: Stability Freeze-thaw (%)
Numeric answer only, unit % assumed.

Which measured Stability Freeze-thaw value corresponds to "CC(C)(O)[C@H]1Cc2cc3ccc(=O)oc3cc2O1" ?
101.36

Which measured Stability Freeze-thaw value corresponds to COc1ccc2ccc(=O)oc2c1CC(O)C(C)(C)O (stereo not drawn) [Compound 11, Meranzin hydrate] ?
96.16

Which measured Stability Freeze-thaw value corresponds to "COc1c2ccoc2cc2oc(=O)ccc12" ?
92.34
